Measured IC50 accompanies every entry in the list below.
assayed_system: SSTR1 (Homo sapiens (Human));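 further: binding assay on CHO-K1 cell membranes overexpressing SSTR1, incubated 60 min at room temperature, bound fraction collected on filters and read by scintillation counting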
Sequence (P30872 whole entry): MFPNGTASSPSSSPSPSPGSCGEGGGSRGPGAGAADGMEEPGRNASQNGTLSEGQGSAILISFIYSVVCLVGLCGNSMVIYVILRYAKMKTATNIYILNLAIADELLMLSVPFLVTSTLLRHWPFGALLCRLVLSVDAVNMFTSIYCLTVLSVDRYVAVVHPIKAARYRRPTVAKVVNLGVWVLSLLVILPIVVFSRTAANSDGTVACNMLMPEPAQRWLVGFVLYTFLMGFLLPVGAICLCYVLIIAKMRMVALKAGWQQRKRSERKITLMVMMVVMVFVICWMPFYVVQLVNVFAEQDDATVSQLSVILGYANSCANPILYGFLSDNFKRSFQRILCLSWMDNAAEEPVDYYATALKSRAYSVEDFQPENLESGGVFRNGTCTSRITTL
method: biochemical

compound | unit_text | IC50
Cc1cccc(CC2(C(=O)N[C@@H]3CN(C)C[C@H]3C(C)C)CC2)c1 (racemic) [Example 3] | µM | 5.37
Cc1ccccc1CC1(C(=O)N[C@@H]2CCN(C)C[C@H]2C)CC1 (racemic) [Example 12] | µM | 15.8
C[C@@H]1CN(C)CC[C@H]1NC(=O)C1(Cc2ccc(F)cc2)CC1 (racemic) [Example 10] | µM | 15.5

---

assayed_system: SSTR4 (Homo sapiens (Human), UniProt P31391)
Sequence (P31391 whole entry): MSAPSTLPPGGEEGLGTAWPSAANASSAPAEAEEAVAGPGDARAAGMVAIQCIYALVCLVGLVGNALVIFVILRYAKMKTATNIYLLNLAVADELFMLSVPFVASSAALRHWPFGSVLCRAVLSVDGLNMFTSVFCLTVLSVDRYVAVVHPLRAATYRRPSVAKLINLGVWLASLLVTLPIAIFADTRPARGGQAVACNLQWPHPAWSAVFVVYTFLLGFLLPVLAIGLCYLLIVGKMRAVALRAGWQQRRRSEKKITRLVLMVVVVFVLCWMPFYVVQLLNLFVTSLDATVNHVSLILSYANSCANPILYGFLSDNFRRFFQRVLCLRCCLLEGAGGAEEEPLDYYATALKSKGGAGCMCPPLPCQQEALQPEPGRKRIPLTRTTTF
method: SSTR4 I-125 somatostatin competition binding assay
condition_summary: membranes from CHO-K1 cells overexpressing SSTR4
Classify as follows. Reported SSTR4 Binding pIC50 greater than or equal to 7: fulfilled. Reported SSTR4 Binding pIC50 below: not fulfilled.

structure_string | assayed_system | label_value
C[C@H]1CN(C)CC[C@@H]1NC(=O)C1(Cc2ccc(F)cc2)CC1 | SSTR4 (Homo sapiens (Human), UniProt P31391) | not fulfilled
C[C@@H]1C[C@H](NC(=O)C2(CN(C)c3cccc(Cl)n3)CC2)CCN1C | SSTR4 (Homo sapiens (Human), UniProt P31391) | not fulfilled
COc1cccc(CC2(C(=O)N[C@H]3CCNC[C@@H]3F)CC2)c1 | SSTR4 (Homo sapiens (Human), UniProt P31391) | fulfilled
C[C@H]1CNCC[C@@H]1NC(=O)C1(Cc2ccc(F)cc2)CC1 | SSTR4 (Homo sapiens (Human), UniProt P31391) | fulfilled
O=C(N[C@H]1CCNC[C@@H]1F)C1(Cc2cccc(Cl)c2)CC1 | SSTR4 (Homo sapiens (Human), UniProt P31391) | fulfilled
